# System tested: GCN2 (Homo sapiens, UniProt Q9P2K8)
# Sequence (Q9P2K8 whole entry): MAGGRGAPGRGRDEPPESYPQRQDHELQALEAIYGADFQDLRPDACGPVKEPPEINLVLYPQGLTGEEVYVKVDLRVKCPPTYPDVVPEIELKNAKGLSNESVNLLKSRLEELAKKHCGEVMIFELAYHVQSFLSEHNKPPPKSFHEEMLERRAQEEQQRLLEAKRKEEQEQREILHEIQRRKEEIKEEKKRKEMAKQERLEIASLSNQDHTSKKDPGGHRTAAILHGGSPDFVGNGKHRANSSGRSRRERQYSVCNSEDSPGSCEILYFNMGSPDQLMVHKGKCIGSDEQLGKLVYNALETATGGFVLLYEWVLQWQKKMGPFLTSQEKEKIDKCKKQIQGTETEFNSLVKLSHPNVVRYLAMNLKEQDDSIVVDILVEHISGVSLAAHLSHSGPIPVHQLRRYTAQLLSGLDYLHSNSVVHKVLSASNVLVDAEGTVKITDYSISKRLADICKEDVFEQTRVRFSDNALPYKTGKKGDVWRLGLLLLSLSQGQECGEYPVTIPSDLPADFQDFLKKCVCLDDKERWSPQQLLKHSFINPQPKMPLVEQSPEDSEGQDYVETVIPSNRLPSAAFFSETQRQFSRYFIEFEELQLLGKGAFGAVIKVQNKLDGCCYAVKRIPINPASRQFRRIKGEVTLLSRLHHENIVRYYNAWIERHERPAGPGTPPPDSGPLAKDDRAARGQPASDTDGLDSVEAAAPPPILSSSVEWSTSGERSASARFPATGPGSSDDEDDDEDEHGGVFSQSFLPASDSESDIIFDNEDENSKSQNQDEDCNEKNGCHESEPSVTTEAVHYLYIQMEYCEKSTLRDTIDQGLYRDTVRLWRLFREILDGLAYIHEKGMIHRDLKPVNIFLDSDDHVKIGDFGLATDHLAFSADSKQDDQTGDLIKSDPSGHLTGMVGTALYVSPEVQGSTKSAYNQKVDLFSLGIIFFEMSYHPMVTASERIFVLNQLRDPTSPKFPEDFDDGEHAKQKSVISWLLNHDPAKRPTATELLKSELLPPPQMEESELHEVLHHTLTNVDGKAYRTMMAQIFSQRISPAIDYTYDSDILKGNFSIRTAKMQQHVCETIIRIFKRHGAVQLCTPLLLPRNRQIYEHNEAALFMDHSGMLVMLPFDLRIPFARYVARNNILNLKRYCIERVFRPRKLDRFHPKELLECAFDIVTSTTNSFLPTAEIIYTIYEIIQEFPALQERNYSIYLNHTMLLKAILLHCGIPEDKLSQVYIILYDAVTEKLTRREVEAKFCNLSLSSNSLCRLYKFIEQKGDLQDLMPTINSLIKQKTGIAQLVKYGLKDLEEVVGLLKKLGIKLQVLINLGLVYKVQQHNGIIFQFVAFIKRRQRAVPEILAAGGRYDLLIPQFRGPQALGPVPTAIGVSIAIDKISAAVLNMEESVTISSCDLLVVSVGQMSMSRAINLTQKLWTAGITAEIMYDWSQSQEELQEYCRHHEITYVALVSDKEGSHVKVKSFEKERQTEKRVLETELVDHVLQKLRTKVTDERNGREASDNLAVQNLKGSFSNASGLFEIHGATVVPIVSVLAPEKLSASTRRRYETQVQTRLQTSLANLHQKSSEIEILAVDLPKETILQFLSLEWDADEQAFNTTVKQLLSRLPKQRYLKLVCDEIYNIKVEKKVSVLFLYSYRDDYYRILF
# Test details: GCN2 enzymatic endpoint assay: phosphorylation of GFP-eIF2α measured by TR-FRET (Lanthascreen)
# Type: biochemical
# Test settings: tested as described in Example 77; compound and/or hydrochloride, dihydrochloride or trifluoroacetic acid salt; read-out: IC 50 Activity
Measured quantity: IC50

INSERT INTO results (structure_smiles, result) VALUES
  ('CNC(=O)[C@]1(C)CC[C@@H](Nc2ncc3c(Br)nn(-c4cccc(NC(=O)c5cncnc5)c4)c3n2)C1', '25 to 200 nM'),
  ('CNC(=O)[C@]1(CC(F)F)CC[C@@H](Nc2ncc3c(Br)nn(-c4cc(CCO)c5ncccc5c4)c3n2)C1', '25 to 200 nM'),
  ('O=C(NC1CCS(=O)(=O)CC1)[C@@H]1CC[C@@H](Nc2ncc3c(Br)nn(-c4ccc(-c5cccnc5)cc4)c3n2)C1', '200 to 500 nM'),
  ('C[C@H](N)c1cc(Cl)cc(-n2nc(Br)c3cnc(N[C@@H]4CC[C@@](C)(C(=O)NCC(F)F)C4)nc32)c1', '25 to 200 nM');

###

# System tested: GCN2 (Homo sapiens, UniProt Q9P2K8)
# Test details: GCN2 enzymatic endpoint assay: phosphorylation of GFP-eIF2α measured by TR-FRET (Lanthascreen)
# Format: biochemical
# Test settings: tested as described in Example 77; compound and/or hydrochloride, dihydrochloride or trifluoroacetic acid salt; read-out: IC 50 Activity
pIC50: −log10 of the molar value.
Measured quantity: pIC50

INSERT INTO results (compound, result) VALUES
  ('CNC(=O)[C@]1(C)CC[C@@H](Nc2ncc3c(Br)nn(-c4ccc(-c5ncco5)c([C@@H]5CCNC5)c4)c3n2)C1', '> 7.60'),
  ('C[C@H]1COCCN1C(=O)[C@@H]1CC[C@@H](Nc2ncc3c(Br)nn(-c4ccc5ncccc5c4)c3n2)C1', '6.70 to 7.60'),
  ('CNC(=O)[C@]1(C)CC[C@@H](Nc2ncc3c(Br)nn(-c4cncc(C#N)c4)c3n2)C1', '6.70 to 7.60'),
  ('N#CCN1CCN(C(=O)[C@@H]2CC[C@@H](Nc3ncc4c(Br)nn(-c5cc(F)c6ncccc6c5)c4n3)C2)CC1', '6.70 to 7.60'),
  ('CNC(=O)[C@]1(C)CC[C@@H](Nc2ncc3c(Br)nn(-c4ccc5nc(OC)ncc5c4)c3n2)C1', '> 7.60'),
  ('COCCNC(=O)[C@@H]1CC[C@@H](Nc2ncc3c(Br)nn(-c4ccc5ncc(F)cc5c4)c3n2)C1', '6.70 to 7.60'),
  ('O=C([C@@H]1CC[C@@H](Nc2ncc3c(Br)nn(-c4ccc5ncccc5c4)c3n2)C1)N1CCOCC1', '6.70 to 7.60'),
  ('Cc1nnc(-c2ccc(-n3nc(Br)c4cnc(N[C@@H]5CC[C@@]6(CCNC6=O)C5)nc43)cc2)s1', '6.70 to 7.60'),
  ('O=C(NCCN1CCOCC1)[C@@H]1CC[C@@H](Nc2ncc3c(Br)nn(-c4ccc5ncccc5c4)c3n2)C1', '6.70 to 7.60'),
  ('COCCNC(=O)[C@@H]1CC[C@@H](Nc2ncc3c(Br)nn(-c4ccc5nc(C)ccc5c4)c3n2)C1', '6.30 to 6.70'),
  ('CCc1nnc(-c2ccc(-n3nc(Br)c4cnc(N[C@@H]5CC[C@@](C)(C(=O)NC)C5)nc43)cc2)s1', '6.70 to 7.60'),
  ('CNC(=O)[C@]1(C)CC[C@@H](Nc2ncc3c(Br)nn(-c4cc(COC)c5ncccc5c4)c3n2)C1', '6.70 to 7.60'),
  ('C[C@H]1CN(C(=O)[C@@H]2CC[C@@H](Nc3ncc4c(Br)nn(-c5ccc6ncccc6c5)c4n3)C2)C[C@H](C)O1', '6.70 to 7.60'),
  ('CC(C)(CN1CCCC1)NC(=O)[C@@H]1CC[C@@H](Nc2ncc3c(Br)nn(-c4ccc5ncccc5c4)c3n2)C1', '6.70 to 7.60'),
  ('CNC(=O)C1(C)CC[C@@H](Nc2ncc3c(Br)nn(-c4cc(CO)cc(C(C)(C)C)c4)c3n2)C1 (stereo partly shown)', '6.70 to 7.60'),
  ('CNC(=O)[C@]1(C)CC[C@@H](Nc2ncc3c(Br)nn(-c4cc(Cl)c(F)c(CNS(C)(=O)=O)c4)c3n2)C1', '6.70 to 7.60');

###

# System tested: GCN2 (Homo sapiens, UniProt Q9P2K8)
# Test details: GCN2 enzymatic endpoint assay: phosphorylation of GFP-eIF2α measured by TR-FRET (Lanthascreen)
# Assay type: biochemical
# Test settings: tested as described in Example 77; compound and/or hydrochloride, dihydrochloride or trifluoroacetic acid salt; read-out: IC 50 Activity
pIC50: −log10 of the molar value.
Examples of molecules with documented pIC50 follow.
Measured quantity: pIC50

INSERT INTO measurements (structure_smiles, result) VALUES
  ('O=C([C@@H]1CC[C@@H](Nc2ncc3c(Br)nn(-c4ccc5ncccc5c4)c3n2)C1)N1CC2(CCNC2)C1', '6.70 to 7.60'),
  ('CNC(=O)[C@]1(C)CC[C@@H](Nc2ncc3c(Br)nn(-c4ccc(-c5nnc(COC)s5)cc4)c3n2)C1', '6.70 to 7.60'),
  ('CNC(=O)[C@]1(C)CC[C@@H](Nc2ncc3c(Br)nn(-c4ccc(C#N)c(OCC5(F)CNC5)c4)c3n2)C1', '6.70 to 7.60'),
  ('CNC(=O)[C@]1(C)CC[C@@H](Nc2ncc3c(Br)nn(-c4ccc5ncc(C(C)(C)O)cc5c4)c3n2)C1', '6.70 to 7.60'),
  ('O=C(NCc1ncco1)[C@@H]1CC[C@@H](Nc2ncc3c(Br)nn(-c4ccc5ncccc5c4)c3n2)C1', '6.70 to 7.60'),
  ('CNC(=O)[C@]1(C)CC[C@@H](Nc2ncc3c(Br)nn(-c4ccc5c(c4)C(C)(C)CO5)c3n2)C1', '6.70 to 7.60'),
  ('CNC(=O)[C@]1(C)CC[C@@H](Nc2ncc3c(Br)nn(-c4ccc5c(=O)n(C)c(=O)n(C)c5c4)c3n2)C1', '> 7.60'),
  ('CNC(=O)[C@]1(C)CC[C@@H](Nc2ncc3c(Br)nn(-c4cc(Cl)cc(OCC5(F)CNC5)c4)c3n2)C1', '> 7.60');

###

# System tested: GCN2 (Homo sapiens, UniProt Q9P2K8)
# Test details: GCN2 enzymatic endpoint assay: phosphorylation of GFP-eIF2α measured by TR-FRET (Lanthascreen)
# Format: biochemical
# Test settings: tested as described in Example 77; compound and/or hydrochloride, dihydrochloride or trifluoroacetic acid salt; read-out: IC 50 Activity
pIC50: −log10 of the molar value.
pIC50 listing for selected molecules.
Measured quantity: pIC50

INSERT INTO results (molecule, result) VALUES
  ('Fc1cc(-n2nc(Br)c3cnc(NC4COC4)nc32)cc2cccnc12', '6.70 to 7.60'),
  ('COCCNC(=O)[C@H]1CC[C@H](Nc2ncc3c(Br)nn(-c4ccc5ncccc5c4)c3n2)C1', '6.00 to 6.30'),
  ('CNS(=O)(=O)C1CC[C@@H](Nc2ncc3c(Br)nn(-c4ccc(-c5nnc(C)s5)cc4)c3n2)C1 (some centres unmarked)', '6.70 to 7.60'),
  ('CNC(=O)[C@]1(C)CC[C@@H](Nc2ncc3c(Br)nn(-c4cc(CC(C)O)c5ncccc5c4)c3n2)C1 (some centres unmarked)', '> 7.60'),
  ('CNC(=O)[C@]1(C)CC[C@@H](Nc2ncc3c(Br)nn(-c4cc(Cl)cc(C(CN)OC)c4)c3n2)C1 (some centres unmarked)', '6.70 to 7.60');

###

# System tested: GCN2 (Homo sapiens, UniProt Q9P2K8)
# Test details: GCN2 enzymatic endpoint assay: phosphorylation of GFP-eIF2α measured by TR-FRET (Lanthascreen)
# Assay type: biochemical
# Test settings: tested as described in Example 77; compound and/or hydrochloride, dihydrochloride or trifluoroacetic acid salt; read-out: IC 50 Activity
# Description: The Enzymatic assay was run as an endpoint assay to quantify the activity of the serine/threonine GCN2 kinase by way of measuring phosphorylation of its natural substrate, eiF2α. The enzymatic reaction was initiated by incubating with 2 μM ATP and 80 nM of GFP labeled eiF2a substrate at room temperature and then stopped after 90 minutes with EDTA. The amount of phosphorylated eIF2α is determined by TR-FRET (Lanthascreen). […]
Measured quantity: IC50

INSERT INTO measurements (compound, result) VALUES
  ('CN(CC1(C)COC1)C(=O)C1(C)CC[C@@H](Nc2ncc3c(Br)nn(-c4cc(F)c5ncccc5c4)c3n2)C1 (stereo partly shown)', '< 25 nM'),
  ('CNC(=O)[C@]1(C)CC[C@@H](Nc2ncc3c(Br)nn(-c4ccc(-c5cncs5)cc4)c3n2)C1', '25 to 200 nM'),
  ('CNC(=O)[C@]1(C)CC[C@@H](Nc2ncc3c(Br)nn(-c4cc(O)c5c(c4)OCC(=O)N5C)c3n2)C1', '25 to 200 nM'),
  ('O=C(O)C1CN(C(=O)[C@@H]2CC[C@@H](Nc3ncc4c(Br)nn(-c5ccc6ncccc6c5)c4n3)C2)CCN1 (mixture of isomers)', '< 25 nM'),
  ('CNC(=O)[C@]1(C)CC[C@@H](Nc2ncc3c(Br)nn(-c4ccc5nccc(OC)c5c4)c3n2)C1', '< 25 nM'),
  ('OC1CC(Nc2ncc3c(Br)nn(-c4cc(F)c5ncccc5c4)c3n2)C1 (stereo not shown)', '25 to 200 nM'),
  ('CNC(=O)[C@]1(C)CC[C@@H](Nc2ncc3c(Br)nn(-c4ccc5[nH]c(=O)ncc5c4)c3n2)C1', '25 to 200 nM'),
  ('CNC(=O)[C@@H]1CC[C@@H](Nc2ncc3c(Br)nn(-c4cnc5ncccc5c4)c3n2)C1', '25 to 200 nM'),
  ('CNC(=O)C1(C)CC[C@@H](Nc2ncc3c(Br)nn(-c4ccc5[nH]c(=O)cc(C)c5c4)c3n2)C1 (stereo partly shown)', '25 to 200 nM'),
  ('N#Cc1cc(-n2nc(Br)c3cnc(N[C@@H]4CC[C@@H](C(=O)N[C@@H]5CCNC5)C4)nc32)cc2cccnc12', '< 25 nM'),
  ('CNC(=O)[C@]1(C)CC[C@@H](Nc2ncc3c(Br)nn(-c4ccc(C5=NOCC5)cc4)c3n2)C1', '25 to 200 nM'),
  ('CNC(=O)C1(C)CC[C@@H](Nc2ncc3c(Br)nn(-c4cc(C#N)c5nccc(C)c5c4)c3n2)C1 (stereo partly shown)', '< 25 nM'),
  ('CNC(=O)[C@]1(C)CC[C@@H](Nc2ncc3c(Br)nn(-c4cc(/C=C/S(C)(=O)=O)c5ncccc5c4)c3n2)C1', '< 25 nM'),
  ('CNC(=O)[C@@H]1CC[C@@H](Nc2ncc3c(Br)nn(-c4ccc5ncccc5c4)c3n2)C1', '25 to 200 nM'),
  ('C[C@@H]1CN(C(=O)C2(C)CC[C@@H](Nc3ncc4c(Br)nn(-c5cc(F)c6ncccc6c5)c4n3)C2)C[C@@H](C)O1 (stereo partly shown)', '25 to 200 nM'),
  ('CNC(=O)[C@]1(C)CC[C@@H](Nc2ncc3c(Br)nn(-c4cc(C)c(C#N)c(C)c4)c3n2)C1', '25 to 200 nM');

Data credit: patent US11046699B2
